System: UACC-62
Assay: NCI tumour cell line growth inhibition, 48 h
Calls of active or inactive are those of the source. Cut-off read from the data, not from the text of the source: active = GI50 up to about 1.1 µM and inactive = higher.
Listing of entries alongside the reported GI50.

Use these answered entries as a reference point.
O=C(O)c1cnc2c(ccc3ncc(C(=O)O)c(O)c32)c1O    > 100 µM (inactive)
N#Cc1cccc(N2C(=O)c3ccc(C(=O)c4ccc5c(c4)C(=O)N(c4cccc(C#N)c4)C5=O)cc3C2=O)c1    > 100 µM (inactive)

Tested on UACC-62, the item CCCCCCCCCCCCCCCCCCOP1(=O)OCCO1 showed GI50 equal to > 100 µM (inactive)

Tested on UACC-62, the item CC(=O)O[C@@H]1[C@H]2[C@@H](OC(=O)c3ccccc3)[C@@H](C)C[C@]2(O)[C@H](OC(C)=O)[C@@]2(C)[C@@H]3C[C@@](C)(OC(C)=O)C[C@@H](OC(C)=O)[C@@]3(OC(C)=O)C[C@@]12C showed GI50 equal to > 10 µM (inactive)

Tested on UACC-62, the item COc1ccc2c(c1)[n+]([O-])c(-c1ccccc1)c(N)[n+]2[O-] showed GI50 equal to 30.3 µM (inactive)

Tested on UACC-62, the item CCCCCCCCCCCCCP(=O)(OC)OC showed GI50 equal to 17.9 µM (inactive)

Tested on UACC-62, the item CSc1csc(-c2ccc(-c3ccc(-c4cc(SC)cs4)s3)s2)c1 showed GI50 equal to > 100 µM (inactive)

Tested on UACC-62, the item COC(C(O)CO)C(O)C(O)C(=O)NNc1ccccc1 (configuration not stated) showed GI50 equal to 5.33 µM (inactive)

Tested on UACC-62, the item NC(=O)CO/N=C1/C(=C2/C(=O)Nc3ccccc32)Nc2ccccc21 showed GI50 equal to 5.87 µM (inactive)

Tested on UACC-62, the item Cc1ccc(/C=C2\CCS(=O)(=O)c3ccccc3C2=O)cc1 showed GI50 equal to 17.3 µM (inactive)

Tested on UACC-62, the item O=C(/C=C\c1cccc2ccccc12)c1ccc(F)cc1 showed GI50 equal to 13.9 µM (inactive)
